Sourced from the RNAGym collection of RNA variant scans (doi:10.1021/acssynbio.7b00057)

Consider the following variants; for each one, report its aptazyme ON/OFF ratio.
B1: Pistol ribozyme (parent)
chain: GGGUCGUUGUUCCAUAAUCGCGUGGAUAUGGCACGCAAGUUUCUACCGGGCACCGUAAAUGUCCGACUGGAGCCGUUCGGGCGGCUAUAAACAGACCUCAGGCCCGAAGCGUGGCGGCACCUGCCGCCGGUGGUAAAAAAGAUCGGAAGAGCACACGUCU

- Variants of: B1
- Method Notes: aptazyme ON/OFF ratio, guanine; higher = stronger switching; co-transcriptional cleavage with and without guanine
One number for each entry.

Field: example entries. Status: answers known.
U7A U8G G9C U10G U11G C12U C13G: 1.18
U7C G9A U10C C12G C13U: 1.15
U7C U8G G9C C12G C13A: 1.27
U8C G9C U10G U11G C12A C13U: 1.08
U7A G9U C12G: 1.39
U7G G9A U10G U11G C12G: 1.09
U7C U10G C12U C13U: 1.24
G9U U11C C12A C13G: 1.36
U8C U10G C12A C13U: 1.11
U7A U8A G9A U10A U11A C13U: 1.3

From here, focus on the item given below.
In one line, give reported aptazyme ON/OFF ratio of the entry U7C U8G G9A U10C U11C .
1.03
